Every entry's value here was drawn from patent US10912780B2.

- test name: In vivo pharmacokinetic studies in rats, 1 hr intravenous infusion
- run conditions: male, Sprague-Dawley, rat, in vivo, iv, 150 mg/kg

{"smiles code": "Cn1c(=O)ccc2ccc(F)c(CCNC[C@H]3CN(c4cnc5c(n4)NC(=O)CO5)C(=O)O3)c21", "Tmax [h]": 1}

---

- test name: In vivo pharmacokinetic studies in rats, 1 hr intravenous infusion
- run conditions: male, Sprague-Dawley, rat, in vivo, iv, 30 mg/kg
value type: clearance

{"smiles code": "Cn1c(=O)ccc2ccc(F)c(CCNC[C@H]3CN(c4cnc5c(n4)NC(=O)CO5)C(=O)O3)c21", "recorded value": "2.04 L/h/kg"}
